The values you see were collected from paper PMC1257591.

target: SULT1A1*1 (Homo sapiens, UniProt P50225); construct: made in house; host or cells: Escherichia coli; assay: Inhibition of 3-OH-BaP sulfotransferase activity by OH-PCBs with cDNA-expressed SULT1A1*1; assay type: biochemical; conditions: 1.0 μM 3-OH-BaP; mean of duplicates; read-out: IC50 SULT1A1*1
METRIC NAME: IC50 (µM)

{"COMPOUND": "Oc1ccc(-c2c(Cl)cc(Cl)cc2Cl)cc1Cl [Compound B3, 4′-OH-CB69]", "ASSAYED TARGET": "SULT1A1*1 (Homo sapiens, UniProt P50225)", "RELATION": "=", "OBSERVED": 67.5}
{"COMPOUND": "Oc1c(Cl)cc(-c2cccc(Cl)c2)cc1Cl [Compound C2, 4-OH-CB36]", "ASSAYED TARGET": "SULT1A1*1 (Homo sapiens, UniProt P50225)", "RELATION": ">", "OBSERVED": 100}
{"COMPOUND": "Oc1ccc(-c2c(Cl)c(Cl)cc(Cl)c2Cl)cc1Cl [Compound B5, 4′-OH-CB112]", "ASSAYED TARGET": "SULT1A1*1 (Homo sapiens, UniProt P50225)", "RELATION": "=", "OBSERVED": 42.5}
